biological target: rat relaxin family peptide receptor 2 (RXFP2) (rat) (UniProt Q5ECL0)
Sequence (Q5ECL0 entry or part of it): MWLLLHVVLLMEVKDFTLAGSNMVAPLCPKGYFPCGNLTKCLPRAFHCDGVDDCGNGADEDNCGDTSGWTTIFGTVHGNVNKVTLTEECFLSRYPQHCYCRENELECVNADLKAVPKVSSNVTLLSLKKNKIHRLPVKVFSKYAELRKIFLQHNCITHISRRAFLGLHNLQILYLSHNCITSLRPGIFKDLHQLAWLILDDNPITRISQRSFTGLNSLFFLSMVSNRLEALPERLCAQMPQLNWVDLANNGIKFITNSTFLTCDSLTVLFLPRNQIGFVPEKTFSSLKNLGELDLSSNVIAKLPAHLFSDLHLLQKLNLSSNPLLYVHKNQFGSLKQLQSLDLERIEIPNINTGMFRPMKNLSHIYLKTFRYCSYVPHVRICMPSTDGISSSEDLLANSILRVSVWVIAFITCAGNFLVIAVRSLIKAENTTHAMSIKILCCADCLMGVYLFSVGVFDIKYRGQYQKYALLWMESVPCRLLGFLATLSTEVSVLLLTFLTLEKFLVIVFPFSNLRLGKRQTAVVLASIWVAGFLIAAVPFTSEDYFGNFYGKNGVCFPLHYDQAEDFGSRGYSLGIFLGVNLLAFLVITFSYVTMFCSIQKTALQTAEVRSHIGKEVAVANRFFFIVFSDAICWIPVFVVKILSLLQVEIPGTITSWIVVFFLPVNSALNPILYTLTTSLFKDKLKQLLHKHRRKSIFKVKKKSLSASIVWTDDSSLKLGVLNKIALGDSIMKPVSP
recorded-endpoint: IC50, INSL3 (EC80)-stimulated cAMP in HEK293 stably expressing rat RXFP2 (nM)
Quick reminder: number only, in nM, skip the unit.

These solved cases illustrate the format of a correct answer.
RXFP2 mAb 4H5 (antibody, V domains shown) VH: QVQLKQSGPGLVQPSQSLSITCTVSGFSLTNYGVHWVRQSPGKGLEWLGVIWRDGNTDYNAAFMSRLSITKDNSKSQVFFEMNSLQVDDTAIYYCCRGDGYYAMGYWGQGTSVTVSS VL: DIQMTQSPASLSVSVGETVTITCRASENIYSNLAWYQQRQGRSPQLLVYAATNLADGVPSRFSGSGSGTQYSLKINSLQSEDFGNYYCQHFWGSPRTFGGGTKLEIK; 14.2
RXFP2 mAb 4A5 (antibody, V domains shown) VH: DVQLVESGGGLVQPGGSRKLSCAASGFTFSTFGMHWVRQAPEKGLEWVAYISSGSSTIYYADTVKGRFTISRDNPKNTLFLQMTSLRSDDTAMYYCSRSYYGSAHYFDYWGQGTTLTVSS VL: DIQMTQSPASLSVSVGETVTITCRASENIYSNLAWYQQKQGKSPQLLVYVATNLADGVPSRFSGSGSGTQYSLRINNLQSEDFGNYYCQHFWGTPPTFGGGTKLEIK; 23.2
RXFP2 mAb 4G6 (antibody, V domains shown) VH: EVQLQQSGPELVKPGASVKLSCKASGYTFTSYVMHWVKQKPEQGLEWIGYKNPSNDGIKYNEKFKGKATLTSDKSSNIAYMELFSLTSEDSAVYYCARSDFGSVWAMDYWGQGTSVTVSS VL: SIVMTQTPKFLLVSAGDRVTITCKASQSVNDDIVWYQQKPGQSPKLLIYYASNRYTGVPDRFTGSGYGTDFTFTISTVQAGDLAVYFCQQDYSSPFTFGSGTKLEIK; 14.1

// below: IC50, INSL3 (EC80)-stimulated cAMP in HEK293 stably expressing rat RXFP2 requested for another binder
Qu. Item under review: RXFP2 mAb 4B8 (antibody, V domains shown) VH: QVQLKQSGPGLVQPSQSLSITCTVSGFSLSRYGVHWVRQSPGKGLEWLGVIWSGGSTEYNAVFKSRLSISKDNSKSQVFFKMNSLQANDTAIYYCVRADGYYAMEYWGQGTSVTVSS VL: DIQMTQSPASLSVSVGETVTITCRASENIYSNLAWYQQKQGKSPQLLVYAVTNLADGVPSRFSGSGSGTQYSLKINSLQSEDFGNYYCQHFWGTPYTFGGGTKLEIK . Reported IC50, INSL3 (EC80)-stimulated cAMP in HEK293 stably expressing rat RXFP2?
Ans. 21.4
